The measured values listed here are drawn from patent US8906904B2.

Give pEC50 for every item shown.
SUBJECT_OF_TEST: human soluble guanylate cyclase alpha 1 and beta 1 subunits (sGC) (Homo sapiens, UniProt Q02108+Q02153)
Sequence (Q02108 1-690): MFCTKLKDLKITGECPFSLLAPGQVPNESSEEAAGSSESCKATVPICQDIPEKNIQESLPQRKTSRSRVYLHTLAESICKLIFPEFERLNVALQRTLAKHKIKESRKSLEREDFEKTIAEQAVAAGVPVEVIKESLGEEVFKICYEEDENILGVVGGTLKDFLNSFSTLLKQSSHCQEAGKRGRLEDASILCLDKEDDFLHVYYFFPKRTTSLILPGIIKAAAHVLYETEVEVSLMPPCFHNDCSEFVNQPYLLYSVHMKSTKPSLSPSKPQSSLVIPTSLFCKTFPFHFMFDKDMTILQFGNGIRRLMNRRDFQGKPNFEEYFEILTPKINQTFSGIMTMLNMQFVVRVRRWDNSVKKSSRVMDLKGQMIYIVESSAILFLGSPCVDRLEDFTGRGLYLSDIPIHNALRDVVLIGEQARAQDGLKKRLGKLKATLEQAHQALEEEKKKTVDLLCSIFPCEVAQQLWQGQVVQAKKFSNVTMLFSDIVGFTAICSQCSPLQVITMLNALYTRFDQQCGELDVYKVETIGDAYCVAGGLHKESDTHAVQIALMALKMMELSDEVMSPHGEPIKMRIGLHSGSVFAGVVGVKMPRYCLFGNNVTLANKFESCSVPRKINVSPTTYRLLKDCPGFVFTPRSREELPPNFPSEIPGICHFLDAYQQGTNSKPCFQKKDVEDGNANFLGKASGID
Sequence (Q02153 1-619): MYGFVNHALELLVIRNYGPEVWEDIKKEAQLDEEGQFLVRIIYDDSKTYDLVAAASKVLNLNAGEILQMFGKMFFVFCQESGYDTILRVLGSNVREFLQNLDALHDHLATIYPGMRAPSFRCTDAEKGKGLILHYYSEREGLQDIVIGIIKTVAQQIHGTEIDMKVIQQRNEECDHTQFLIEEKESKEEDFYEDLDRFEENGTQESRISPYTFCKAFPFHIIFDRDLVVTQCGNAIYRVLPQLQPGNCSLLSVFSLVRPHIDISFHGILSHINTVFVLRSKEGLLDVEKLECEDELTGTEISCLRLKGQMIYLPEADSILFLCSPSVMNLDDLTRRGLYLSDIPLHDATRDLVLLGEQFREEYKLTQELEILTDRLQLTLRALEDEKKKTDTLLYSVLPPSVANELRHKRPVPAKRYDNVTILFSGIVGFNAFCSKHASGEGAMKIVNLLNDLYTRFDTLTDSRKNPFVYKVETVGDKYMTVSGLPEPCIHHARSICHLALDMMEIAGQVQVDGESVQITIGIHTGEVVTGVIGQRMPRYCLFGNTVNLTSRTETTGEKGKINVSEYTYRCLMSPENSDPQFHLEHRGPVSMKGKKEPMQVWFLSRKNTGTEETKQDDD
TEST_DETAILS: sGC cellular activator assay (cGMP, HTRF)
CONDITION_CONTEXT: CHO cells stably expressing human sGC alpha 1/beta 1, preincubated with 40 microM ODQ; cGMP readout; assay run with and without 50% human serum, Table 2 does not say which
Give bare numbers, as −log10 of the molar value.

These solved cases illustrate the format of a correct answer.
MOLECULE: COc1c(C(=O)O)cnn1-c1cccc(-c2cccc(C)c2OCc2ccc3c(c2)C(C)(C)CN(C2COC2)C3)n1
pEC50: 7.80
--
MOLECULE: COCC(C)N1CCc2cc(COc3c(C)cccc3-c3cccc(-n4ncc(C(=O)O)c4OC)n3)cc(C)c2C1 (stereo not shown)
pEC50: 7.64
--
MOLECULE: CCOc1c(C(=O)O)cnn1-c1cccc(-c2cccc(C)c2OCc2ccc3c(c2C)CCN(C(C)COC)CC3)n1 (stereo not shown)
pEC50: 7.89

Please give measured pEC50 of the following entry: COc1c(C(=O)O)cnn1-c1cccc(-c2cccc(C)c2OCc2ccc3c(c2)CCN(C2CC4CCC(C2)O4)C3)n1 (stereo not shown)
7.26
